# system.tested: human ether-à-go-go-related gene (hERG) potassium channel (human, UniProt Q12809);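 further: peak tail current of the secondary pulse compared with the same well before compound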
# Sequence (Q12809 whole entry, looked up): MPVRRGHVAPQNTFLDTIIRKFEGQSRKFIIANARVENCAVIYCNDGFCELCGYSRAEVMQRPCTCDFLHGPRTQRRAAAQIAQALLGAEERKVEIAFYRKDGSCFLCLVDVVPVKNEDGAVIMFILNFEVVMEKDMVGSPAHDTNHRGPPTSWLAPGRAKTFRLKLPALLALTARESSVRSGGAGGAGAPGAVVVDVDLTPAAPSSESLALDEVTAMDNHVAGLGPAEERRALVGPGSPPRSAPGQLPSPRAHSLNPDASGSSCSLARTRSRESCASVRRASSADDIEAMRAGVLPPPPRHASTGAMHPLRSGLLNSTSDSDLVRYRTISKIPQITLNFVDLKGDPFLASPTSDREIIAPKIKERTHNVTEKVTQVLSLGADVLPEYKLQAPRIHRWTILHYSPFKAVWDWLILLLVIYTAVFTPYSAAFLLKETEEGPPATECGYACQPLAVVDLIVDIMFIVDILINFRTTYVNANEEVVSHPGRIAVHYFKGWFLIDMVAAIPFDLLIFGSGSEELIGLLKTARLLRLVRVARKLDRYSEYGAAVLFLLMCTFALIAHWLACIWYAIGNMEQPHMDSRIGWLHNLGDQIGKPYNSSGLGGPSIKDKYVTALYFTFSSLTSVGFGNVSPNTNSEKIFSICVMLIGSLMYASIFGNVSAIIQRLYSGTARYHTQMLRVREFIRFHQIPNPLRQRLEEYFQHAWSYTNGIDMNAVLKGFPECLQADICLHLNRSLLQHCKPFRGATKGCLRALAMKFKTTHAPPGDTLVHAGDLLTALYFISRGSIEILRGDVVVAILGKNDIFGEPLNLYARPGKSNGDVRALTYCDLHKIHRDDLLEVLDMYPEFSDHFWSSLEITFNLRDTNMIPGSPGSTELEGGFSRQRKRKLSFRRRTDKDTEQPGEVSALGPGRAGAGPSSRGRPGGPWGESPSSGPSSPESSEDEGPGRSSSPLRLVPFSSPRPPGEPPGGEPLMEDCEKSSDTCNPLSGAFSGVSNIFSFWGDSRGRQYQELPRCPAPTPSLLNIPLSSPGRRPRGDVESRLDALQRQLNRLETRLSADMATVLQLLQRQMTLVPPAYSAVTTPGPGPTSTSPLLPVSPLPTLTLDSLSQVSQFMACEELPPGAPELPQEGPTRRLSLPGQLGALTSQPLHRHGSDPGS
# test.method.notes: primary screen, population patch clamp on CHO cells stably expressing hERG; higher = less effect of the substance
Screen size: about 310,000 compounds; about 14,000 (4.5%) showed an effect of 50% or more. The effect is printed as a negative number. What follows is part of a selection rich in strong results, with near analogues and random picks from the rest.
recorded.endpoint: hERG current change (%, negative = inhibition) at 10uM

>  <molecule>
COc1ccc(-c2cccc(NS(=O)(=O)c3ccc([N+](=O)[O-])cc3)c2)nn1

>  <result>
-15.2%

$$$$
>  <molecule>
CCN(CC(=O)NC1CC1)S(=O)(=O)c1ccccc1

>  <result>
10%

$$$$
>  <molecule>
S=C(Nc1ccc(Cl)cc1)N(CCCN1CCOCC1)Cc1ccco1

>  <result>
-26%

$$$$
>  <molecule>
C=CCNC(=S)NCC1COc2ccccc2O1 (stereo not drawn)

>  <result>
19.6%

$$$$
>  <molecule>
CN1CCN(CCCN(Cc2ccco2)C(=S)Nc2ccc(Cl)cc2)CC1

>  <result>
-69.6%

$$$$
>  <molecule>
COc1ccccc1CNC(=O)COc1ccc2c(c1)CCC2

>  <result>
-1.2%

$$$$
